- Measurement description: Metabolic stability of marein in rat liver microsome incubation
- Format: in vitro ADME
- Condition parameters: SD, rat, liver microsomes, pH 7.4, SD rat liver microsomes; read-out: t1/2 (in vitro metabolic half-life in liver microsomes)
Readout type: half-life (h)
One number for each entry, in h.

// lookup half-life for O=C(/C=C/c1ccc(O)c(O)c1)c1ccc(O[C@@H]2O[C@H](CO)[C@@H](O)[C@H](O)[C@H]2O)c(O)c1O
2.96

* * *

- Measurement description: Detection of marein and metabolites in rat plasma and urine after tail vein injection (UPLC-Q-TOF-MS/MS)
- Assay type: in vivo, Sprague–Dawley rats
- Design: key: P: plasma; U: urine
- Condition parameters: tail vein injection of marein 10 mg/kg, plasma 0-1 h, urine 24 h
Readout type: Location (matrix in which the metabolite was detected)

Worked cases, answers included:
{"Compound smiles": "O=C(/C=C/c1ccc(O)c(O)c1)c1ccc(O)c(O)c1O", "Val": "U"}
{"Compound smiles": "O=C(/C=C/c1ccc(O)cc1)c1ccc(O[C@@H]2O[C@H](CO)[C@@H](O)[C@H](O)[C@H]2O)c(O)c1O", "Val": "U"}
{"Compound smiles": "O=C(/C=C/c1ccc(O)c(O)c1)c1ccc(O[C@@H]2O[C@H](CO)[C@@H](O)[C@H](O)[C@H]2O)c(O)c1O", "Val": "P, U"}
{"Compound smiles": "O=C(/C=C/c1ccc(O)c(O)c1)c1ccc(O[C@@H]2O[C@H](CO)[C@@H](O)[C@H](O)[C@H]2O)cc1O", "Val": "P, U"}
{"Compound smiles": "O=C1C[C@@H](c2ccc(O)c(O)c2)Oc2c1ccc(O[C@@H]1O[C@H](CO)[C@@H](O)[C@H](O)[C@H]1O)c2O", "Val": "P, U"}
{"Compound smiles": "O=C(/C=C/c1cccc(O)c1)c1ccc(O[C@@H]2O[C@H](CO)[C@@H](O)[C@H](O)[C@H]2O)c(O)c1O", "Val": "U"}

# ---- query molecule ----
// lookup Location (matrix in which the metabolite was detected) for O=C(CCc1ccccc1)c1ccc(O[C@@H]2O[C@H](CO)[C@@H](O)[C@H](O)[C@H]2O)c(O)c1O
U
